System: GB4
Experiment: qHTS profiling for inhibitors of Plasmodium falciparum proliferation (AID 504749); note: nearly all actives have a fitted effect of over 60% in size
Conditions: P. falciparum in erythrocytes, SYBR Green DNA, 72 h; series mostly up to 12.8 µM
Inconclusive results are not listed. Activity calls are given as the source filed them. Calls come from the whole dose curve; as a rule, active = well fitted inhibition curve with a large enough effect; inconclusive = small, poorly fitted or top-dose-only effect; inactive = flat fitted curve, though single readings scatter.
Respond with a class label; see active, inactive

## Input Field: outcome | Entry: COc1cc(C2c3cc4c(cc3C(O[C@@H]3OC5COC(c6cccs6)OC5C(O)C3O)C3COC(=O)C23)OCO4)cc(OC)c1O (stereo not given in full)
## Output active

## Input Field: outcome | Entry: Clc1ccc([C@H](Cn2ccnc2)OCc2c(Cl)cccc2Cl)c(Cl)c1
## Output active

## Input Field: outcome | Entry: CC(=O)OCC(=O)[C@@]1(O)[C@H](C)C[C@@H]2[C@H]3CCC4=CC(=O)C=C[C@]4(C)[C@]3(F)[C@@H](O)C[C@@]21C
## Output inactive

## Input Field: outcome | Entry: CNC1CC(N)[C@H](O)[C@@H](O[C@@H]2OC(CO)C3OC4(OC(C(N)CO)C(O)C(O)C4O)O[C@@H]3[C@H]2O)C1O (stereo not given in full)
## Output inactive

## Input Field: outcome | Entry: CC(C)(C)NC(=O)[C@@H]1CC[C@@H]2[C@@H]3CC[C@@H]4NC(=O)C=C[C@@]4(C)[C@H]3CC[C@]21C
## Output inactive

## Input Field: outcome | Entry: CC(C)(C)NC[C@H](O)COc1cccc2c1C[C@@H](O)[C@@H](O)C2
## Output inactive

## Input Field: outcome | Entry: NS(=O)(=O)c1cc2c(cc1Cl)N[C@@H](CC1CCCC1)NS2(=O)=O
## Output inactive

## Input Field: outcome | Entry: COc1ccc([C@@H]2CC(=O)c3c(O)cc(O[C@H]4O[C@@H](CO[C@H]5O[C@@H](C)[C@@H](O)[C@@H](O)[C@@H]5O)[C@@H](O)[C@@H](O)[C@@H]4O)cc3O2)cc1O
## Output inactive

## Input Field: outcome | Entry: Nc1nc(NC2CC2)c2ncn([C@H]3C=C[C@@H](CO)C3)c2n1
## Output inactive

## Input Field: outcome | Entry: CN[C@H]1[C@H](O)[C@@H](O[C@@H]2[C@H](O)[C@@H](O[C@H]3OC(CN)=CC[C@H]3N)[C@@H](N)C[C@H]2N)OC[C@@]1(C)O
## Output inactive

* * *

Assay: qHTS Assay for Lipid Storage Modulators (AID 1519)
Conditions: Drosophila S3 cells, BODIPY lipid droplet/cell ratio, laser cytometry; measured here: cell count channel max response; cells loaded with oleic acid
Inconclusive results are not listed.
What max response was measured for each of the following?
Report only the number, with the unit % understood.

## Input Check the records and state max response for Cc1cn(C2CC(N=[N+]=[N-])C(CO)O2)c(=O)[nH]c1=O (stereo not drawn)
## Output 4.71

## Input Check the records and state max response for CC1(C)S[C@H]2C(NC(=O)[C@@H](N)c3ccc(O)cc3)C(=O)N2[C@@H]1C(=O)O (stereo partly drawn)
## Output 17.1

## Input Check the records and state max response for O=c1cc(-c2ccc(O)cc2)oc2cc(O)ccc12
## Output -4.61

## Input Check the records and state max response for COC(=O)c1cc(=O)c(O)c2c(O)c(O)ccc2c1
## Output -7.53

## Input Check the records and state max response for C#C[C@]1(O)CC[C@@H]2[C@H]3CCc4cc(OC)ccc4[C@@H]3CC[C@@]21C
## Output -15.5

## Input Check the records and state max response for C[C@@]12CC[C@H]3[C@@H](CCC4=CC(=O)CC[C@]43C)[C@H]1CC[C@H]2C(=O)CO
## Output -3.01

## Input Check the records and state max response for CC(=O)OCC(=O)[C@@]1(O)CCC2C3CC[C@H]4CC(O)CC[C@@]4(C)C3C(=O)C[C@]21C (stereo partly drawn)
## Output -0.527

## Input Check the records and state max response for C[C@@H]1/C(=N/O)CC2C[C@@H]1C2(C)C
## Output 9.02

## Input Check the records and state max response for NCC[C@H](O)C(=O)N[C@H]1C[C@@H](N)[C@@H](O[C@H]2O[C@@H](CN)[C@@H](O)[C@@H](O)[C@@H]2O)[C@@H](O)[C@@H]1O[C@H]1O[C@@H](CO)[C@@H](O)[C@@H](N)[C@@H]1O
## Output 11.5

## Input Check the records and state max response for CC(=O)Nc1cc2ccccc2oc1=O
## Output -14.5

## Input Check the records and state max response for COc1cc2c(cc1OC)-c1cc3ccc(OC)c(OC)c3c[n+]1CC2
## Output -8.72

## Input Check the records and state max response for CCC(CO)NCCNC(CC)CO (stereo not drawn)
## Output 8.09

## Input Check the records and state max response for CC(C)C1=CC2=CC[C@@H]3[C@@](C)(C(=O)O)CCC[C@]3(C)C2CC1 (stereo partly drawn)
## Output -0.0856

## Input Check the records and state max response for Nc1nc2nc(Cl)[nH]c2c(=O)[nH]1
## Output 6.47

## Input Check the records and state max response for OCC1OC(n2cnc3c(Cl)ncnc32)C(O)C1O (stereo not drawn)
## Output 10.1

## Input Check the records and state max response for COc1cc(-c2oc3cc(O)ccc3c(=O)c2O)ccc1O
## Output -22.8

## Input Check the records and state max response for C#C[C@@]1(O)CC[C@@H]2[C@@H]3CCC4=C(CCC(=O)C4)[C@H]3CC[C@]21C
## Output -13

## Input Check the records and state max response for CC1(C)OC2C[C@](O)(C(N)=O)C[C@H](O)[C@H]2O1 (stereo partly drawn)
## Output 15.6

## Input Check the records and state max response for COC1=CC(=O)C(C(=O)c2ccccc2)=CC1=O
## Output 13.1

## Input Check the records and state max response for Nc1nc2[nH]c(=O)c(=O)[nH]c2c(=O)[nH]1
## Output 1.82

## Input Check the records and state max response for CC(=O)NC(CCC(=O)O)C(=O)O (stereo not drawn)
## Output 14.5

## Input Check the records and state max response for CO[C@@]1(NC(=O)CSCC#N)C(=O)N2C(C(=O)O)=C(CSc3nnnn3C)CSC21 (stereo partly drawn)
## Output 4.52

## Input Check the records and state max response for CCC(C(N)=O)c1ccccc1 (stereo not drawn)
## Output 9.46

* * *

What max response was measured for each of the following?
Assay: qHTS Assay for Lipid Storage Modulators (AID 1519)
Conditions: Drosophila S3 cells, BODIPY lipid droplet/cell ratio, laser cytometry; measured here: lipid channel max response; cells loaded with oleic acid
Inconclusive results are not listed.
Report only the number, with the unit % understood.

## Input Check the records and state max response for CC1(C)OC2CC(=O)OC[C@@]23C1CC(=O)[C@]1(C)C3CC[C@@]2(C)C(c3ccoc3)OC(=O)C3O[C@@]321 (some centres undefined)
## Output 29.2

## Input Check the records and state max response for C[C@]12CC[C@@H]3C(=CCc4cc(O)ccc43)[C@@H]1CCC2=O
## Output -15.4

## Input Check the records and state max response for C[C@]12CCC(=O)C=C1CCC1C2C(=O)C[C@]2(C)C1CC[C@]2(O)C(=O)CO (some centres undefined)
## Output 22

## Input Check the records and state max response for C=CCCCCCCCCCCCc1ccco1
## Output 21.7

* * *

Assay: qHTS Assay for Lipid Storage Modulators (AID 1519)
Details: Drosophila S3 cells, BODIPY lipid droplet/cell ratio, laser cytometry; measured here: lipid channel max response; cells loaded with oleic acid
Records with an inconclusive call do not appear.
readout_type: max response (%)
Report only the number, with the unit % understood.

## Input Check the records and state max response for C=C1CCC(O)C/C1=C/C=C1\CCC[C@@]2(C)C(C(C)/C=C/C(C)C(C)C)CC[C@@H]12 (some centres undefined)
## Output 55.4

## Input Check the records and state max response for CC(C)=CCOc1cc2oc(=O)ccc2cc1O
## Output -2.91

## Input Check the records and state max response for COc1c(Cl)ccc(Cl)c1C(=O)O
## Output -7.42

## Input Check the records and state max response for CC1CCC(C(C)(C)O)CC2=C1CCC2C (centres undefined)
## Output 15.9

* * *

Target: Rap guanine nucleotide exchange factor 3 (Homo sapiens) (UniProt O95398)
Test: Counterscreen qHTS for agonist of cAMP-regulated guanine nucleotide exchange factor 3 (EPAC1) (AID 1645889); note: % of control where 0% means no effect; nearly all actives have a fitted effect of over 40% in size
Conditions: EPAC1 Rap1B-BODIPY-GDP exchange, fluorescence; series mostly up to 154 µM
Records with an inconclusive call do not appear. Active and inactive are the calls of the source. Calls follow the shape of the dose curve; as a rule, active = well fitted activation curve with a large enough effect; inconclusive = small, poorly fitted or top-dose-only effect, or another doubt; inactive = no such curve, though single readings can be large or run the other way.
readout_type: activation

1) CCCCSc1nc2c(c(=O)n1CC)SC(C)C2 (centres undefined) :: 5.23% [at 30.8 µM] (inactive)
2) CCCCCN(C(=O)CCC(=O)OCc1ccc(C(C)C)cc1)c1c(N)n(CCCC)c(=O)[nH]c1=O :: inactive
3) CN(C)C(=S)Oc1ccccc1-c1ccccc1OC(=S)N(C)C :: inactive
4) Cc1ccc(CNC(=O)c2ccc3c(=O)[nH]c4c(C(=O)NCC5CCCO5)sc(=S)n4c3c2)cc1 (centres undefined) :: inactive

## Input Check the records and state activation for Nc1nc(CSc2nnnn2-c2ccc(Cl)cc2)nc(N2CCOCC2)n1
## Output 8.16% [at 30.8 µM] (inactive)

## Input Check the records and state activation for COc1cccc(/C=C2\SC(=S)N(NS(=O)(=O)c3ccccc3)C2=O)c1OC
## Output inactive

## Input Check the records and state activation for CCc1cccc2cc3c(N)c(C(=O)Nc4ccc(S(=O)(=O)N5CCCC5)cc4)sc3nc12
## Output inactive

## Input Check the records and state activation for C/C(=N\NC(=O)c1cc(-c2cccc([N+](=O)[O-])c2)n[nH]1)c1ccccc1O
## Output inactive

## Input Check the records and state activation for C=CCn1c(C)cc(C(=O)Cn2ncc(Cl)c(Cl)c2=O)c1C
## Output inactive

## Input Check the records and state activation for COc1ccc(C/C(C)=N/NC(=O)c2cccnc2)cc1
## Output 7.53% [at 30.8 µM] (inactive)
